molecular target: F protein of RSV strain Long (infectious virus) (human respiratory syncytial virus …, UniProt P12568 26-574); test: cell-based or functional assay
Sequence (P12568 26-574): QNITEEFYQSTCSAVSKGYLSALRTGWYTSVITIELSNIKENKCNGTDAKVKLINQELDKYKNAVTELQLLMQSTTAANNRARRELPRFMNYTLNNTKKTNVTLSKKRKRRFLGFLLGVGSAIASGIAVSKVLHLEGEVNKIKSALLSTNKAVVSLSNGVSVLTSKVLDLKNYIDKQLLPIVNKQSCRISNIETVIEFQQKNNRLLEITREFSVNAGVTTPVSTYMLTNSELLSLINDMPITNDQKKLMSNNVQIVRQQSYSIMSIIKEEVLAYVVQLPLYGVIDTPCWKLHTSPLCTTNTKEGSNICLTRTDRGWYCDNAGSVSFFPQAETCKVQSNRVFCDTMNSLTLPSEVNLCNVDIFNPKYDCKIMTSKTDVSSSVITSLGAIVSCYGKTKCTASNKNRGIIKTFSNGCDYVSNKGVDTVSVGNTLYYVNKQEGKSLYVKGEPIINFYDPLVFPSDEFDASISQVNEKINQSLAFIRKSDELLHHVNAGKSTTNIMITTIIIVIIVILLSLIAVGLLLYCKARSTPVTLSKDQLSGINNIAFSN
READOUT_NAME: Neutralization IC50, plaque-reduction assay
Please report the result as a number followed by the unit.

Prompt line: Output Neutralization IC50, plaque-reduction assay of hRSV90 (antibody, V domains shown, also called mAb hRSV90) VH: EVQLVESGGGLVQPRRSLRLSCAASGFTFDDYTIHWVRQAPGKGLEWVSGITWNSGYIGYADSVKGRFTISRDNARNSLYLQMNSLRAEDTALYYCVRDAYVSGSDYYYYGLDVWGRGTLVTVSS VL: EIVMTSSPATLSVSPGERATLFCRASQSVISNLAWYQQKSGQAPRLLIYGASTRATGIPARFSGSGSGTEFTLTISSLQSEDFAVYFCQQYNNWPLTFGGGTQVNVQ
Response line: 0.035 µg/mL

Prompt line: Specify reported Neutralization IC50, plaque-reduction assay for the binder shown: motavizumab (antibody, V domains shown) VH: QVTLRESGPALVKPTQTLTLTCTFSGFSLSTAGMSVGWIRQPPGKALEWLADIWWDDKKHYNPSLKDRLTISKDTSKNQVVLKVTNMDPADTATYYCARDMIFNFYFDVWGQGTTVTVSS VL: DIQMTQSPSTLSASVGDRVTITCSASSRVGYMHWYQQKPGKAPKLLIYDTSKLASGVPSRFSGSGSGTEFTLTISSLQPDDFATYYCFQGSGYPFTFGGGTKVEIK
Response line: 0.009 µg/mL

Prompt line: Please list Neutralization IC50, plaque-reduction assay recorded for the binder AM14 (antibody, V domains shown) VH: EVQLVESGGGVVQPGRSLRLSCAASGFSFSHYAMHWVRQAPGKGLEWVAVISYDGENTYYADSVKGRFSISRDNSKNTVSLQMNSLRPEDTALYYCARDRIVDDYYYYGMDVWGQGATVTVSS VL: DIQMTQSPSSLSASVGDRVTITCQASQDIKKYLNWYHQKPGKVPELLMHDASNLETGVPSRFSGRGSGTDFTLTISSLQPEDIGTYYCQQYDNLPPLTFGGGTKVEIKR
Response line: 0.043 µg/mL

Prompt line: Report Neutralization IC50, plaque-reduction assay, nothing else, for this binder: hRSV139 (antibody, V domains shown) VH: QVQLVQSGAEVKKPGASVKVSCKASGYVFSNYGISWVRQAPGQGLEWMGWISAYNGNTEFAQKFQGRITMTTDTSTNTAYLEVRGLRSDDTAVYYCSRQSGVSGVPEFQDWGQGTLVTVSS VL: QAVVTQSPLSLPVTLGQPASISCRSSQSLVYSNGDTYLSWFQQRPGQSPRRLIYKVSNRDSGVPDRFSASGSGTDFTLKISRVEAEDVGVYYCMQGTHWPPPTFGQGTRLEIK
Response line: 0.07 µg/mL
